- Stated conditions: in ethyl formate, 278.15 K
Endpoint label: solubility (mole fraction)
One number for each entry.

-- ask Bench note: what solubility (mole fraction) did CCC[C@@H]1CC(=O)N([C@@H](CC)C(N)=O)C1 show?
-- reply 0.0887

====

- Stated conditions: in ethyl acetate, 298.15 K
Endpoint label: solubility (mole fraction)

-- ask Bench note: what solubility (mole fraction) did CCC[C@@H]1CC(=O)N([C@@H](CC)C(N)=O)C1 show?
-- reply 0.152

====

- Stated conditions: in n-propanol, 283.15 K
Endpoint label: solubility (mole fraction)
Answers are plain numbers.

-- ask Bench note: what solubility (mole fraction) did CCC[C@@H]1CC(=O)N([C@@H](CC)C(N)=O)C1 show?
-- reply 0.17

All figures here come from BigSolDB 2.1.
